Reference source for all entries: ChEMBL document CHEMBL4689842

For each entry below, report its Population Mitotic Cells (%) value.
system: HEK-293T; test: Multiplex assay against HEK293T; type: toxicity, cell-based; details: human, 12 h, 10 µM, compound concentration 10 uM, replicate 1
Put your answer as a value accompanied by its unit after it.

Query: Note down Population Mitotic Cells (%) recorded for CCn1c(-c2nonc2N)nc2cnc(Oc3cccc(NC(=O)c4ccc(OCCN5CCOCC5)cc4)c3)cc21 [GSK-269962A]
Result: 38%

Query: Note down Population Mitotic Cells (%) recorded for "Nc1nc2c(c(N3CCNCC3)n1)CCC1=C2[C@@H]2CCCC[C@@H]2O1"
Result: 23%

Query: Note down Population Mitotic Cells (%) recorded for "CC(C)(C)c1cnc(CSc2cnc(NC(=O)C3CCNCC3)s2)o1"
Result: 76%

Query: Note down Population Mitotic Cells (%) recorded for "COc1cc2c(Nc3ccc(NC(=O)c4ccccc4)cc3)ncnc2cc1OCCCN1CCOCC1"
Result: 82%

Query: Note down Population Mitotic Cells (%) recorded for "CNc1oc(-c2cccc3ccccc23)nc1C#N"
Result: 58%

Query: Note down Population Mitotic Cells (%) recorded for "CCc1cc2c(cc1CC)CC(NC[C@H](O)c1ccc(O)c3[nH]c(=O)ccc13)C2"
Result: 6%

Query: Note down Population Mitotic Cells (%) recorded for Cc1nc(Cc2cccc(C(F)(F)F)c2)sc1-c1ccc(C(N)=O)nc1 [TP-024n]
Result: 49%

###

test system: HEK-293T; test: Multiplex assay against HEK293T; type: toxicity, cell-based; details: human, 12 h, 1 µM, compound concentration 1 uM, replicate 1
Readout Label: Population Pyknosed Nuclei (%)
Write down the numeric answer in % and omit the unit.

Query: Report value: Population Pyknosed Nuclei (%), system: HEK-293T, compound: "CCCn1c(=O)c2[nH]c(C34CC5CC(CC3C5)C4)nc2n(CCC)c1=O"
Result: 55

Query: Report value: Population Pyknosed Nuclei (%), system: HEK-293T, compound: "CCOc1cc(N2CCC(O)CC2)ccc1Nc1ncc2c(n1)N(C1CCCC1)CCC(=O)N2C"
Result: 22

Query: Report value: Population Pyknosed Nuclei (%), system: HEK-293T, compound: "CN(C)CCOc1ccc(-c2nc(-c3ccncc3)c(-c3ccc4c(c3)CC/C4=N\O)[nH]2)cc1"
Result: 18

Query: Report value: Population Pyknosed Nuclei (%), system: HEK-293T, compound: "O=C(O)c1ccc2cc(-c3ccc(O)c(C45CC6CC(CC(C6)C4)C5)c3)ccc2c1"
Result: 33

Query: Report value: Population Pyknosed Nuclei (%), system: HEK-293T, compound: "Cl.Cl.Nc1ncnc2c1c(-c1cccc(OCc3ccccc3)c1)cn2[C@H]1C[C@@H](CN2CCC2)C1"
Result: 68

Query: Report value: Population Pyknosed Nuclei (%), system: HEK-293T, compound: "Cc1cn(-c2cc(NC(=O)c3ccc4c(c3)CN(c3cncnc3)C[C@@H]4C)cc(C(F)(F)F)c2)cn1"
Result: 22

###

tested on: HEK-293T; test: Multiplex assay against HEK293T; format: toxicity, cell-based; conditions: human, 24 h, 10 µM, compound concentration 10 uM, replicate 2
For each entry below, report its Total Cell Count value.
Number only, no unit.

Query: Note down Total Cell Count recorded for CCc1cc2c(cc1CC)CC(NC[C@H](O)c1ccc(O)c3[nH]c(=O)ccc13)C2 [INDACATEROL]
Result: 219

Query: Note down Total Cell Count recorded for "COc1cc2c(Nc3ccc(NC(=O)c4ccccc4)cc3)ncnc2cc1OCCCN1CCOCC1"
Result: 1748

Query: Note down Total Cell Count recorded for CCn1c(-c2nonc2N)nc2cnc(Oc3cccc(NC(=O)c4ccc(OCCN5CCOCC5)cc4)c3)cc21 [GSK-269962A]
Result: 189

Query: Note down Total Cell Count recorded for CCC(=O)O[C@]1(C(=O)SCF)[C@H](C)C[C@H]2[C@@H]3C[C@H](F)C4=CC(=O)C=C[C@]4(C)[C@@]3(F)[C@@H](O)C[C@@]21C [FLUTICASONE PROPIONATE]
Result: 226

Query: Note down Total Cell Count recorded for CCCn1c(=O)c2[nH]c(C34CC5CC(CC3C5)C4)nc2n(CCC)c1=O [ROLOFYLLINE]
Result: 150

Query: Note down Total Cell Count recorded for "CCOc1cc(N2CCC(O)CC2)ccc1Nc1ncc2c(n1)N(C1CCCC1)CCC(=O)N2C"
Result: 3112

Query: Note down Total Cell Count recorded for O=C(O)c1ccc2cc(-c3ccc(O)c(C45CC6CC(CC(C6)C4)C5)c3)ccc2c1 [O-DEMETHYLATED ADAPALENE]
Result: 234

Query: Note down Total Cell Count recorded for Cc1nc(Cc2cccc(C(F)(F)F)c2)sc1-c1ccc(C(N)=O)nc1 [TP-024n]
Result: 148

Query: Note down Total Cell Count recorded for "Cl.Cl.Nc1ncnc2c1c(-c1cccc(OCc3ccccc3)c1)cn2[C@H]1C[C@@H](CN2CCC2)C1"
Result: 227

Query: Note down Total Cell Count recorded for N#Cc1cnc(Nc2cc(NC[C@H]3CNCCO3)c(C(F)(F)F)cn2)cn1 [SRA-737]
Result: 1254

Query: Note down Total Cell Count recorded for CCOc1cc2ncc(C#N)c(Nc3ccc(OCc4cccc(F)c4)c(Cl)c3)c2cc1NC(=O)/C=C/CN(C)C [HKI-357]
Result: 1894

Query: Note down Total Cell Count recorded for "Nc1nc2c(c(N3CCNCC3)n1)CCC1=C2[C@@H]2CCCC[C@@H]2O1"
Result: 190

Query: Note down Total Cell Count recorded for CN(C)CCOc1ccc(-c2nc(-c3ccncc3)c(-c3ccc4c(c3)CC/C4=N\O)[nH]2)cc1 [SB590885]
Result: 3237

Query: Note down Total Cell Count recorded for "Cc1cn(-c2cc(NC(=O)c3ccc4c(c3)CN(c3cncnc3)C[C@@H]4C)cc(C(F)(F)F)c2)cn1"
Result: 2031

Query: Note down Total Cell Count recorded for "COc1cc2c(NC3CCN(C(C)C)CC3)nc(N3CCC(F)(F)CC3)nc2cc1OCCCN1CCCC1"
Result: 244

Query: Note down Total Cell Count recorded for "CC(C)N1CCC(C)(C)c2cc(C#Cc3ccc(C(=O)O)cc3)ccc21"
Result: 448

Query: Note down Total Cell Count recorded for "COc1ccc(NS(=O)(=O)c2sc3ccc(Cl)cc3c2C)cc1N1CCNCC1.Cl"
Result: 187

Query: Note down Total Cell Count recorded for "Nc1ccc(C(=O)Nc2cccc(-c3nc(N4CCOCC4)c4oc5ncccc5c4n3)c2)cn1"
Result: 315

Query: Note down Total Cell Count recorded for "Cl.Cl.NC1(c2ccc(-c3nc4ccn5c(=O)[nH]nc5c4cc3-c3ccccc3)cc2)CCC1"
Result: 837

Query: Note down Total Cell Count recorded for CC(C)(C)c1cnc(CSc2cnc(NC(=O)C3CCNCC3)s2)o1 [BMS-387032]
Result: 828

Query: Note down Total Cell Count recorded for "c1ccc2oc(-c3csc(C4CCN(Cc5nc6ncccc6[nH]5)CC4)n3)cc2c1"
Result: 1653

Query: Note down Total Cell Count recorded for CNC(=O)c1cc(Oc2ccc(NC(=O)Nc3cc(C(C)(C)C)nn3-c3ccc4ncccc4c3)c(F)c2)ccn1 [REBASTINIB]
Result: 674
